# Test system: mouse organs
# EXPERIMENTAL PROTOCOL: In vivo activity screening in mice: organ mean total flux (p/s) of luciferase activity after injection of F2 LNP pools (Table 6, FIG. 7A-7C)
# ASSAY CONTEXT: Mouse 5, dose 0.5 mg/kg, luciferase mRNA
Marks after values point to notes of the source that are not given here.
For each record, write down the corresponding Organ Mean Total Flux Liver.

Some entries whose results are on file:
{"MOLECULE": "CCCCCCCCCC(C)OC(=O)CCCCCC(=O)OCC(COC(=O)CCCCCC(=O)OC(C)CCCCCCCCC)(COC(=O)CCCCCC(=O)OC(C)CCCCCCCCC)COC(=O)CCC(CCCCCC)OC(=O)NCCN1CCCC1 (stereo not shown) [Compound 42]", "Organ Mean Total Flux Liver": "1778 p/s (×10^6)"}
{"MOLECULE": "CCCC/C=C\\CCOC(=O)CCCCCCC(=O)OCC(COC(=O)CCCCCCC(=O)OCC/C=C\\CCCC)(COC(=O)CCCCCCC(=O)OCC/C=C\\CCCC)COC(=O)CCC(CCCCCC)OC(=O)NCCN1CCCC1 (stereo not shown) [Compound 43]", "Organ Mean Total Flux Liver": "669.3 p/s (×10^6)"}
{"MOLECULE": "CCCCC/C=C\\CCOC(=O)CCCCCCC(=O)OCC(COC(=O)CCCCCCC(=O)OCC/C=C\\CCCCC)(COC(=O)CCCCCCC(=O)OCC/C=C\\CCCCC)COC(=O)CCC(CCCCCC)OC(=O)OCCCN1CCCC1 (stereo not shown) [Compound 31]", "Organ Mean Total Flux Liver": "26.8 p/s (×10^6)"}
{"MOLECULE": "CCCCC/C=C\\CCOC(=O)CCCCC(=O)OCC(COC(=O)CCCCC(=O)OCC/C=C\\CCCCC)(COC(=O)CCC(CCCCCC)OC(=O)NCCN1CCCC1)COC(=O)CC12CC3CC(CC(C3)C1)C2 (stereo not shown) [Compound 14]", "Organ Mean Total Flux Liver": "1303 p/s (×10^6)"}

Record Organ Mean Total Flux Liver per entry; entries follow.
1. CCCCC/C=C\C/C=C\CCCCCCCCC(CCCCCCCC/C=C\C/C=C\CCCCC)OC(=O)CCCN(C)C [MC3, reference compound]
2. CCCCC/C=C\CCCOC(=O)CCCCC(=O)OCC(COC(=O)CCCCC(=O)OCCC/C=C\CCCCC)(COC(=O)CCCCC(=O)OCCC/C=C\CCCCC)COC(=O)CCC(CCCCCC)OC(=O)NCCN1CCCC1 (stereo not shown) [Compound 47]
3. CCCCCCCCCC(C)OC(=O)CCCCCCC(=O)OCC(COC(=O)CCCCCCC(=O)OC(C)CCCCCCCCC)(COC(=O)CCCCCCC(=O)OC(C)CCCCCCCCC)COC(=O)CCC(CCCCCC)OC(=O)NCCN1CCCC1 (stereo not shown) [Compound 41]

1: 5667 p/s (×10^6); 2: 974.3 p/s (×10^6); 3: 3493 p/s (×10^6)

----------
# Test system: mouse organs
# EXPERIMENTAL PROTOCOL: In vivo activity screening in mice: organ mean total flux (p/s) of luciferase activity after injection of F2 LNP pools (Table 6, FIG. 7A-7C)
# ASSAY CONTEXT: Mouse 5, dose 0.5 mg/kg, luciferase mRNA
Marks after values point to notes of the source that are not given here.
For each record, write down the corresponding Organ Mean Total Flux Spleen.

{"COMPOUND": "CCCCC/C=C\\CCOC(=O)CCCCCCC(=O)OCC(COC(=O)CCCCCCC(=O)OCC/C=C\\CCCCC)(COC(=O)CCCCCCC(=O)OCC/C=C\\CCCCC)COC(=O)CCC(CCCCCC)OC(=O)OCCCN1CCCC1 (stereo not shown) [Compound 31]", "Organ Mean Total Flux Spleen": "2.0 p/s (×10^6)"}
{"COMPOUND": "CCCCC/C=C\\CCCOC(=O)CCCCC(=O)OCC(COC(=O)CCCCC(=O)OCCC/C=C\\CCCCC)(COC(=O)CCCCC(=O)OCCC/C=C\\CCCCC)COC(=O)CCC(CCCCCC)OC(=O)NCCN1CCCC1 (stereo not shown) [Compound 47]", "Organ Mean Total Flux Spleen": "67.0 p/s (×10^6)"}
{"COMPOUND": "CCCCC/C=C\\CCOC(=O)CCCCC(=O)OCC(COC(=O)CCCCC(=O)OCC/C=C\\CCCCC)(COC(=O)CCC(CCCCCC)OC(=O)NCCN1CCCC1)COC(=O)CC12CC3CC(CC(C3)C1)C2 (stereo not shown) [Compound 14]", "Organ Mean Total Flux Spleen": "20.8 p/s (×10^6)"}

Print mouse organs Organ Mean Total Flux Spleen for CCCCCCCCCC(C)OC(=O)CCCCCC(=O)OCC(COC(=O)CCCCCC(=O)OC(C)CCCCCCCCC)(COC(=O)CCCCCC(=O)OC(C)CCCCCCCCC)COC(=O)CCC(CCCCCC)OC(=O)NCCN1CCCC1 (stereo not shown) [Compound 42] .
4.5 p/s (×10^6)
